measurement.target: CaM (Bos taurus)
Construct: made in house; host or cells: E. coli BL21 (DE3)
measurement.description: Pull-down assay with immobilized protein and LSM libraries
Format: binding, bovine
conditions.used: H14 library; 1:2 stoichiometry assumed; read-out: Surface mapping KD (apparent)
Method: Pull-down assays with immobilized test proteins and foldameric LSM libraries were carried out. Proteins were equilibrated with LSM probes, and equilibrium bound fractions (FB) were determined from the unbound fractions measured by HPLC-MS methods. Hits were corrected with background binding of the resin. […] MS data analysis. […] Using these processing setups, all raw data files were reprocessed together and analyzed. […]
pKd: −log10 of the molar value.
measured.parameter: pKd

>>> reported("NCCCC[C@@H](CC(=O)N[C@H]1CCCC[C@@H]1C(N)=O)NC(=O)[C@H]1CCCC[C@@H]1NC(=O)[C@H]1CCCC[C@@H]1NC(=O)C[C@H](CCCCN)NC(=O)[C@H]1CCCC[C@@H]1N")
4.31
>>> reported("CSCC[C@@H](CC(=O)N[C@H]1CCCC[C@@H]1C(N)=O)NC(=O)[C@H]1CCCC[C@@H]1NC(=O)[C@H]1CCCC[C@@H]1NC(=O)C[C@H](CCC(N)=O)NC(=O)[C@H]1CCCC[C@@H]1N")
4.29
>>> reported("C[C@@H](O)[C@@H](CC(=O)N[C@H]1CCCC[C@@H]1C(=O)N[C@H]1CCCC[C@@H]1C(=O)N[C@@H](CCCNC(=N)N)CC(=O)N[C@H]1CCCC[C@@H]1C(N)=O)NC(=O)[C@H]1CCCC[C@@H]1N")
4.12
>>> reported("NC(=O)C[C@@H](CC(=O)N[C@H]1CCCC[C@@H]1C(=O)N[C@H]1CCCC[C@@H]1C(=O)N[C@@H](CC(=O)O)CC(=O)N[C@H]1CCCC[C@@H]1C(N)=O)NC(=O)[C@H]1CCCC[C@@H]1N")
3.68
>>> reported("CC(C)[C@@H](CC(=O)N[C@H]1CCCC[C@@H]1C(=O)N[C@H]1CCCC[C@@H]1C(=O)N[C@H](CC(=O)N[C@H]1CCCC[C@@H]1C(N)=O)Cc1c[nH]c2ccccc12)NC(=O)[C@H]1CCCC[C@@H]1N")
4.89
>>> reported("NC(=O)CC[C@@H](CC(=O)N[C@H]1CCCC[C@@H]1C(N)=O)NC(=O)[C@H]1CCCC[C@@H]1NC(=O)[C@H]1CCCC[C@@H]1NC(=O)C[C@H](Cc1ccc(O)cc1)NC(=O)[C@H]1CCCC[C@@H]1N")
3.91
>>> reported("C[C@@H](O)[C@@H](CC(=O)N[C@H]1CCCC[C@@H]1C(N)=O)NC(=O)[C@H]1CCCC[C@@H]1NC(=O)[C@H]1CCCC[C@@H]1NC(=O)C[C@H](Cc1c[nH]c2ccccc12)NC(=O)[C@H]1CCCC[C@@H]1N")
5.22
>>> reported("NCCCC[C@@H](CC(=O)N[C@H]1CCCC[C@@H]1C(=O)N[C@H]1CCCC[C@@H]1C(=O)N[C@H](CC(=O)N[C@H]1CCCC[C@@H]1C(N)=O)Cc1ccc(O)cc1)NC(=O)[C@H]1CCCC[C@@H]1N")
4.44
>>> reported("NC(=O)[C@H]1CCCC[C@@H]1NC(=O)C[C@H](CO)NC(=O)[C@H]1CCCC[C@@H]1NC(=O)[C@H]1CCCC[C@@H]1NC(=O)C[C@H](Cc1ccccc1)NC(=O)[C@H]1CCCC[C@@H]1N")
4.82
